System: MDA-MB-468 breast
Test: NCI-60 one-dose screen, 48 h
Settings: 10 µM unless noted
This is part of a sample that, as a whole, favours compounds with a hit. Of some 83,000 tested, about 20% had one in any assay. The source made the active and inactive calls. How the source made its calls: active means growth percent below 10; inactive means the rest.
In this exercise, the only acceptable responses are True (active), False (inactive)

Answered cases to consult:
{"compound": "N#CC1c2ccccc2C=CN1C(=O)CCCl (stereo not given)", "category": "False"}
{"compound": "CC(C)c1ccc(NC(=O)Nc2ccc(NC(=O)c3ccccc3N)cc2)cc1", "category": "False"}
{"compound": "COc1ccc(NNS(=O)(=O)O)cc1", "category": "False"}

Just curious, what result did "Nc1ncnc2c1c(-c1ccc(Oc3ccccc3)cc1)nn2C[C@H]1SSC[C@@H]1O" get here?
True
